Hey, just so you know, these numbers are from the nanobody polyreactivity screen of Harvey et al. (2022).

# assay-explanation: yeast display, Sf9 membrane polyspecificity reagent, FACS + sequencing; frameworks hold sequencing errors
endpoint-name: polyreactivity (PSR sort gate)

INSERT INTO assay_data (item_sequence, reported_result) VALUES
  ('QVQLVESGGGLVQAGGSIRLSCAASGFIFQRYSMGWYRQAPGKERELVAAISSSGGSTYYADSVKGRFTISRDNAKNTVYLQMNSLKPEDTAVYYCAARVPPRTLAYYYWGQGTQVTVSS', 'high polyreactivity'),
  ('QVQLVESGGGLVQAGGSLSLSCAASGITFVFYTMGWYRQAPGKERELVAAISRSGASTYYADSVKGRFTISRDNAKNTVYLQMNSLKPQDTAVDYCAADRGYRFRMDYWGQGTQVTVSS', 'high polyreactivity'),
  ('QVQLVESGGGLFQAGGSLRLSCAASGRTITYYAMGWYRQAPGKERELVAAITWSGGSTYYADSVKGRFTISRDNAKNTVYLQMNSMKPEDTAVYYCAKEFYYSSGFDYWGQGTQVTVSS', 'low polyreactivity'),
  ('QVQLVESGGGLVQAGGSLRVSCAASGSTFTDYDMVWYRQAPGKERELVAAITSGGSTNYADSVKGRFTISRDNAKNTVYLHMNSLKPEDTAVYYCNAERDSPTLNLDRGWEYDYWGQGTQVTVSS', 'low polyreactivity'),
  ('QVQLVESGGGLVQAGGSLRLSCAASGRTFKSYAMGWYRQAPGKERELVAAISKRGGSTYYADSVKGRFTISRDNAKNTVYLQMNSLKPEDTAVYYCAADARYRSYSLLVRPGRYYYWGQGTQVTVSS', 'high polyreactivity');
